Biological target: T1, human GIP receptor (human) (UniProt P48546)
T1 sequence (looked up): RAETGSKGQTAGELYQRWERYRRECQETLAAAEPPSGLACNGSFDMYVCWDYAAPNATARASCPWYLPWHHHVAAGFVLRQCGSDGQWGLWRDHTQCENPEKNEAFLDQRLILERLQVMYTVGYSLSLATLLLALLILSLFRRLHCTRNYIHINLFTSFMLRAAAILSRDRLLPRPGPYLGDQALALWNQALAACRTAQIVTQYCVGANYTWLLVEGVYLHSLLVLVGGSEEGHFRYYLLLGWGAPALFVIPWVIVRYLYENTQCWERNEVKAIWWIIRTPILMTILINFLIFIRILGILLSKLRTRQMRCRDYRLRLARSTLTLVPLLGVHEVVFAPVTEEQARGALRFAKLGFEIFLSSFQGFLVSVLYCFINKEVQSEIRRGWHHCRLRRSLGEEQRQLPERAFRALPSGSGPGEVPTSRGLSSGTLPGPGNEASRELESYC
Assay: cell-based or functional assay
Starred links: 1 amine or outer side, 2 acyl side, 3 side chain; linkers in the order of their positions; H or OH if unused. Non-standard residues stand in square brackets, D forms with d. Groups on a side chain read outwards from the residue. No end group written: not given here. *: point of attachment. C20 diacid = O=C(O)CCCCCCCCCCCCCCCCCCC(=O)*; Phe(4-CN) = N#Cc1ccc(C[C@H](N)C(=O)O)cc1; αMePhe(2-F) = C[C@](N)(Cc1ccccc1F)C(=O)O; γGlu = O=C(O)[C@H](CCC(=O)[*:2])N[*:1]; AEEA = NCCOCCOCC(=O)O; Aib = CC(C)(N)C(=O)O
Values of Relative cAMP EC50 greater than or equal to 0.3 nM map to Y; values below map to N.

For orientation, consider the following solved cases.
binder	label.value
YXQGTFTSDFSXXLDKKAQXAFIEYLLEAGPSSXAPPPSGT (Lys acylated with AEEA-γGlu-C18 diacid; non-natural residues; C-amide; synthetic construct; SITE 2: note = 2-Aminoisobutyric Acid; SITE 12: note = L-ornithine; SITE 13: note = alpha-methyl-leucine; SITE 17: note = Lysine is chemically modified through conjugation of the epsilon-amino group of the Lysine side chain with (2-[2-(2-Amino-ethoxy)-ethoxy]-acetyl)-(gamma-Glu)) [Example 214]	N
YXQGTXTSDXSIXLDXKAQXEFIEXLIEGGPSSGAPPPSGE (non-natural residues; acylated Lys; C-terminal amide; synthetic construct; SITE 2: note = 2-Aminoisobutyric Acid; SITE 6: note = alpha-methyl-2-fluoro-L-phenylalanine; SITE 10: note = 3-(4-Pyridyl)-L-alanine; SITE 13: note = alpha-methyl-leucine; SITE 16: note = L-ornithine; SITE 17: note = Lysine is chemically modified through conjugation of the epsil) [Example 616]	N
Y[Aib]QGT[αMePhe(2-F)]TSD[Phe(4-CN)]SKLLDKIAQK([AEEA-γGlu-C20 diacid])AFIEYLIEGGPSSGAPPPSGS-NH2 [Example 363]	Y
YXQGTFTSDFSXXLDKKAQXAFIEYLLEGGPSSGAPPPGGT (non-natural residues; lipidated Lys; synthetic construct; SITE 2: note = 2-Aminoisobutyric Acid; SITE 12: note = L-ornithine; SITE 13: note = alpha-methyl-leucine; SITE 17: note = Lysine is chemically modified through conjugation of the epsilon-amino group of the Lysine side chain with (2-[2-(2-Amino-ethoxy)-ethoxy]-acetyl)-(gamma-Glu)) [Example 197]	Y

Query string: Decide: is the reported value of Relative cAMP EC50 for YXQGTXTSDYSKXLDKKAQXQFIEYLEEGGPSSGEPPPSEG (synthetic construct; SITE 2: note = 2-Aminoisobutyric Acid; SITE 6: note = alpha-methyl-2-fluoro-L-phenylalanine; SITE 13: note = alpha-methyl-leucine; SITE 17: note = Lysine is chemically modified through conjugation of the epsilon-amino group of the Lysine side chain with (2-[2-(2-Amino-ethoxy)-et)) [Example 292] equal to or greater than 0.3 nM?
Result string: Y

Query string: Decide: is the reported value of Relative cAMP EC50 for YXQGTXTSDYXILLDKKAQXAFIEYLEEGGPSSGAPPPS (synthetic construct; SITE 2: note = 2-Aminoisobutyric Acid; SITE 6: note = alpha-methyl-L-phenylalanine; SITE 11: note = alpha-methyl-L-serine; SITE 17: note = Lysine is chemically modified through conjugation of the epsilon-amino group of the Lysine side chain with (2-[2-(2-Amino-ethoxy)-ethoxy]-ac)) [Example 393] equal to or greater than 0.3 nM?
Result string: N
